self-aminoacylation overview
Tested on: biotinyl-Leu-oxazolone
Test: self-aminoacylation, catalytic enhancement (BLO) (fold over background); higher = more active; k-Seq, kA / k0A0; sequences stand for … in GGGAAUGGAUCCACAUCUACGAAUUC…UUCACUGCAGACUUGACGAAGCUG
Variants at the floor of the assay were thinned out.
METRIC_NAME: self-aminoacylation

> print(dat)
                        biopolymer.sequence       system.under.test  observed
1  CCACACUCCUAGCAAUCGGUC [Fam1B.1 aminoacylation ribozyme variant]  biotinyl-Leu-oxazolone     0.746
2  AUACUUCAAACAAUAGGUCUG [Fam1A.1 aminoacylation ribozyme variant]  biotinyl-Leu-oxazolone     0.835
3  CUACUUCAAACAAUCCGUCUU [Fam1A.1 aminoacylation ribozyme variant]  biotinyl-Leu-oxazolone     0.802
4  CCACUCUUCAAGCAAUGGGUC [Fam1B.1 aminoacylation ribozyme variant]  biotinyl-Leu-oxazolone     0.911
